Target: RNA polymerase II (Homo sapiens)
Construct: a well-defined nuclear extract providing the RNA polymerase II and a basal set of transcription factors; purchased Promega; host or cells: HeLa cell nuclear extract (endogenous enzyme)
Type: biochemical
Conditions: standard HS-DNA template; 30 min at 30°C; qPCR; first set of reactions; read-out: IC50 (RNA synthesis)
pIC50: −log10 of the molar value.

{"inputSmiles": "CN1CC[C@H](c2c(O)cc(O)c3c(=O)cc(-c4ccccc4Cl)oc23)[C@H](O)C1", "pIC50": "< 3.90"}

---

Target: RNA polymerase II (Homo sapiens, UniProt P24928)
Construct: a well-defined nuclear extract providing the RNA polymerase II and a basal set of transcription factors; purchased Promega; host or cells: HeLa cell nuclear extract (endogenous enzyme)
Type: biochemical
Details: HS-DNA_long template; 10 min at 30°C; qPCR; second set of reactions; read-out: IC50 (RNA synthesis)
reportedProperty: IC50 (nM)

{"inputSmiles": "CN1CC[C@H](c2c(O)cc(O)c3c(=O)cc(-c4ccccc4Cl)oc23)[C@H](O)C1", "reportedProperty": "IC50", "resultValue": 940}

The reported numbers originate from paper PMC4021065.
